ASSAY_DETAILS: viability loss with induced miR-34 in A549 – imaging, A549 dox-inducible miR-34, nuclei and caspase counts, primary screen (AID 1347080)
CONDITIONS_USED: A549 miR-34 inducible, Hoechst nuclei count, 48 h; measured here: relative caspase fold change +Dox/-Dox
*1 amine or outer side, *2 acyl side, *3 side chain or, on linkers, in order; H or OH if unused. Where a SMILES comes first, the peptide text is derived from it. Bridges are numbered along the chain shown (N, C = ends). Roman numbers before positions name the chains, in order. [ ]: non-standard residue; d: D form. Hexamethylenediamine = C(CCCN[*:2])CCN[*:1]; Dip = N[CH](C(=O)O)C(c1ccccc1)c1ccccc1; Chg = N[CH](C(=O)O)C1CCCCC1; NMeA = CN[CH](C)C(=O)O
The label depends only on fold change: rule met if it is at least 1, rule not met if it is smaller.

COc1cc(N)c(Cl)cc1C(=O)N[C@H]1CCN(CCCOc2ccc(F)cc2)C[C@H]1OC: rule met

Input: API: above_or_equal(metric=fold change, cutoff=1) for item CNC(C)C(=O)NC(C(=O)N1CCCC1C(=O)NC(C(=O)NCCCCCCNC(=O)C(NC(=O)C1CCCN1C(=O)C(NC(=O)C(C)NC)C1CCCCC1)C(c1ccccc1)c1ccccc1)C(c1ccccc1)c1ccccc1)C1CCCCC1 (centres undefined) (I: H-[NMeA][Chg]P[Dip] / II: H-[NMeA][Chg]P[Dip]; linker I:C-II:C via Hexamethylenediamine; configuration not given here)
Output: rule not met

Input: API: above_or_equal(metric=fold change, cutoff=1) for item CCOC(=O)C12CC1/C(=N/O)c1ccccc1O2 (centres undefined)
Output: rule met

Input: API: above_or_equal(metric=fold change, cutoff=1) for item Cc1nc(NC(=O)NCC2COc3ccccc3O2)nn1C(C)C (centres undefined)
Output: rule met

Input: API: above_or_equal(metric=fold change, cutoff=1) for item CC(O)[C@@H]1C(=O)N2C(C(=O)O)=C(SC3CNC(CNS(N)(=O)=O)C3)C(C)[C@@H]12 (some centres undefined)
Output: rule not met

Input: API: above_or_equal(metric=fold change, cutoff=1) for item `COCCOc1cc2nc[nH]c(=O)c2cc1OCCOC`
Output: rule met

Input: API: above_or_equal(metric=fold change, cutoff=1) for item `COc1c(C)c2c(c(O)c1CC=C(C)CCC(=O)OCCN1CCOCC1)C(=O)OC2`
Output: rule met

Input: API: above_or_equal(metric=fold change, cutoff=1) for item Nc1nc2c(nc(Br)n2C2OC3COP(=O)(O)O[C@@H]3C2O)c(=O)[nH]1 (some centres undefined)
Output: rule met

====

Catalogue of inhibition readings, one per entry.
ASSAY_DETAILS: growth inhibition, single agents and combos, ICB984, cell-based, cisplatin or BGB combos, synergistic combos for chromothripsis tumors (AID 1671451);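 also: cells exposed for 96 hours before readout; 0% = vehicle DMSO and 100% = killing by high DMSO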
CONDITIONS_USED: ICB984 medulloblastoma cells, drug combinations, at 0.5 µM, stronger effect = higher value
Numbers only here, please. The scale is %.

O=c1[nH]cnc2c1ncn2C1CCC(CO)O1 (stereo not given): -12.4
Cn1cnc2[nH]c(=O)[nH]c(=O)c21: -24.9
CC(=O)C1(O)Cc2c(O)c3c(c(O)c2C(OC2CC(N)C(O)C(C)O2)C1)C(=O)c1ccccc1C3=O (stereo not given): -42.9
C#CCC(CCCCCC)C(=O)O (stereo not given): -6.37
NC(=S)NN=Cc1ncccc1N: -16.4

inhibition measured on `C[n+]1ccc(-c2c3nc(c(-c4cc[n+](C)cc4)c4ccc([nH]4)c(-c4cc[n+](C)cc4)c4nc(c(-c5cc[n+](C)cc5)c5ccc2[nH]5)C=C4)C=C3)cc1` = -22.5

inhibition measured on `Cn1cc(-c2cnn3c(N)c(Br)c([C@H]4CCCNC4)nc23)cn1` = -16.3

inhibition measured on `O=c1[nH]c(=S)[nH]c2nc(-c3ccccc3)c(-c3ccccc3)nc12` = -20.3

inhibition measured on CCC(Sc1nnc2c3ccccc3n(CC)c2n1)C(=O)Nc1ccccc1OC (stereo not given) = -26.1

inhibition measured on `O=c1cc(-c2ccc(O)cc2)[nH]c(=S)[nH]1` = -27.2
